Hey, just so you know, these numbers are from paper PMC11566078.

# System: Enterococcus faecalis ATCC 29212
# Protocol Notes: microbe, parasite or virus in culture
# Format: cell-based
# Condition Notes: ATCC 29212, 6 h
Where no end group is shown, it is not given here.
Kindly supply the reported Minimal inhibitory concentration, Enterococcus faecalis values for the records listed here.

Write down the reported Minimal inhibitory concentration, Enterococcus faecalis of KRRGSVTTRYQFLMIHLLRPKKLFA [EA-CATH1] , test system: Enterococcus faecalis ATCC 29212.
30 (9.8) μg/mL

Write down the reported Minimal inhibitory concentration, Enterococcus faecalis of WYQLIRTFGNLIHQKYRKLLEAYRKLRD [ΔModoCath5] , test system: Enterococcus faecalis ATCC 29212.
10 (2.8) μg/mL

Write down the reported Minimal inhibitory concentration, Enterococcus faecalis of LNPLIKAGIFILKHRRPIGRGIEITGRGIKKFFSK [ML-CATH] , test system: Enterococcus faecalis ATCC 29212.
5 (1.3) μg/mL

Write down the reported Minimal inhibitory concentration, Enterococcus faecalis of ILGRLRDLLRRGGRKIGQGLERIGQRIQGFFSNREPMEES [HA-CATH] , test system: Enterococcus faecalis ATCC 29212.
> 40 (8.6) μg/mL

Write down the reported Minimal inhibitory concentration, Enterococcus faecalis of RRRPRPPYLPRPRPPPFFPPRLPPRIPPGFPPRFP [PR-35] , test system: Enterococcus faecalis ATCC 29212.
> 40 (9.5) μg/mL

Write down the reported Minimal inhibitory concentration, Enterococcus faecalis of TRSRWRRFIRGAGRFARRYGWRIA [ΔPb-CATH4] , test system: Enterococcus faecalis ATCC 29212.
> 40 (13.1) μg/mL

Write down the reported Minimal inhibitory concentration, Enterococcus faecalis of GRFRRLRKKTRKRLKKIGKVLKWIPPIVGSIPLGCG [PMAP-36] , test system: Enterococcus faecalis ATCC 29212.
> 40 (9.6) μg/mL

Write down the reported Minimal inhibitory concentration, Enterococcus faecalis of GGLRSLGRKILRAWKKYGPIIVPIIRIG [BMAP-28] , test system: Enterococcus faecalis ATCC 29212.
15 (4.8) μg/mL

Write down the reported Minimal inhibitory concentration, Enterococcus faecalis of VKRTKRGARRGLTKVLKKIFGSIVKKAVSKGV [ΔModoCath1] , test system: Enterococcus faecalis ATCC 29212.
2.9 µM

Write down the reported Minimal inhibitory concentration, Enterococcus faecalis of VRRSKRGIKVPSFVKKVLKDVVSESIS [ΔModoCath6] , test system: Enterococcus faecalis ATCC 29212.
> 40 (13.2) μg/mL

Write down the reported Minimal inhibitory concentration, Enterococcus faecalis of SKFFRKARKKLGKGLQKIKNVLRKY [ΔHg-CATH] , test system: Enterococcus faecalis ATCC 29212.
> 40 (13.2) μg/mL

Write down the reported Minimal inhibitory concentration, Enterococcus faecalis of RVRRFWPLVPVAINTVAAGINLYKAIRRK [cc-CATH3] , test system: Enterococcus faecalis ATCC 29212.
5 (1.5) μg/mL

Write down the reported Minimal inhibitory concentration, Enterococcus faecalis of ILGPALRIGGRIAGRIAGKLIGDAINRHRERNRQRRG [PD-CATH] , test system: Enterococcus faecalis ATCC 29212.
6 (1.5) μg/mL

###

# System: Streptococcus equi subsp. zooepidemicus ATCC 43079
# Protocol Notes: microbe, parasite or virus in culture
# Assay type: cell-based
# Condition Notes: ATCC 43079, 6 h
Where no end group is shown, it is not given here.
Quantity Kind: Minimal inhibitory concentration, Streptococcus equi subsp. zooepidemicus

Param item = WYQLIRTFGNLIHQKYRKLLEAYRKLRD [ΔModoCath5] ; retrieve measured Minimal inhibitory concentration, Streptococcus equi subsp. zooepidemicus.
> 40 (11.0) μg/mL

Param item = ILGRLRDLLRRGGRKIGQGLERIGQRIQGFFSNREPMEES [HA-CATH] ; retrieve measured Minimal inhibitory concentration, Streptococcus equi subsp. zooepidemicus.
> 40 (8.6) μg/mL

Param item = LNPLIKAGIFILKHRRPIGRGIEITGRGIKKFFSK [ML-CATH] ; retrieve measured Minimal inhibitory concentration, Streptococcus equi subsp. zooepidemicus.
9 (2.3) μg/mL

Param item = RVRRFWPLVPVAINTVAAGINLYKAIRRK [cc-CATH3] ; retrieve measured Minimal inhibitory concentration, Streptococcus equi subsp. zooepidemicus.
5 (1.5) μg/mL

Param item = TRSRWRRFIRGAGRFARRYGWRIA [ΔPb-CATH4] ; retrieve measured Minimal inhibitory concentration, Streptococcus equi subsp. zooepidemicus.
20 (6.6) μg/mL

Param item = SKFFRKARKKLGKGLQKIKNVLRKY [ΔHg-CATH] ; retrieve measured Minimal inhibitory concentration, Streptococcus equi subsp. zooepidemicus.
15 (4.9) μg/mL

Param item = GGLRSLGRKILRAWKKYGPIIVPIIRIG [BMAP-28] ; retrieve measured Minimal inhibitory concentration, Streptococcus equi subsp. zooepidemicus.
> 40 (12.6) μg/mL

Param item = KRRGSVTTRYQFLMIHLLRPKKLFA [EA-CATH1] ; retrieve measured Minimal inhibitory concentration, Streptococcus equi subsp. zooepidemicus.
> 40 (13.1) μg/mL

Param item = GRFRRLRKKTRKRLKKIGKVLKWIPPIVGSIPLGCG [PMAP-36] ; retrieve measured Minimal inhibitory concentration, Streptococcus equi subsp. zooepidemicus.
> 40 (9.6) μg/mL

Param item = RRRPRPPYLPRPRPPPFFPPRLPPRIPPGFPPRFP [PR-35] ; retrieve measured Minimal inhibitory concentration, Streptococcus equi subsp. zooepidemicus.
> 40 (9.5) μg/mL

Param item = ILGPALRIGGRIAGRIAGKLIGDAINRHRERNRQRRG [PD-CATH] ; retrieve measured Minimal inhibitory concentration, Streptococcus equi subsp. zooepidemicus.
17 (4.2) μg/mL

Param item = VRRSKRGIKVPSFVKKVLKDVVSESIS [ΔModoCath6] ; retrieve measured Minimal inhibitory concentration, Streptococcus equi subsp. zooepidemicus.
> 40 (13.2) μg/mL

###

# Tested on: Bacillus cereus ATCC 10876
# Protocol Notes: microbe, parasite or virus in culture
# Format: cell-based
# Condition Notes: ATCC 10876, 6 h
Where no end group is shown, it is not given here.
Kindly supply the reported Minimal inhibitory concentration, Bacillus cereus values for the records listed here.

Param item = SKFFRKARKKLGKGLQKIKNVLRKY [ΔHg-CATH] ; retrieve measured Minimal inhibitory concentration, Bacillus cereus.
> 40 (13.2) μg/mL

Param item = ILGRLRDLLRRGGRKIGQGLERIGQRIQGFFSNREPMEES [HA-CATH] ; retrieve measured Minimal inhibitory concentration, Bacillus cereus.
25 (5.4) μg/mL

Param item = GRFRRLRKKTRKRLKKIGKVLKWIPPIVGSIPLGCG [PMAP-36] ; retrieve measured Minimal inhibitory concentration, Bacillus cereus.
28 (6.7) μg/mL

Param item = WYQLIRTFGNLIHQKYRKLLEAYRKLRD [ΔModoCath5] ; retrieve measured Minimal inhibitory concentration, Bacillus cereus.
26 (7.3) μg/mL

Param item = RRRPRPPYLPRPRPPPFFPPRLPPRIPPGFPPRFP [PR-35] ; retrieve measured Minimal inhibitory concentration, Bacillus cereus.
> 40 (9.5) μg/mL

Param item = LNPLIKAGIFILKHRRPIGRGIEITGRGIKKFFSK [ML-CATH] ; retrieve measured Minimal inhibitory concentration, Bacillus cereus.
3 (0.8) μg/mL

###

# Tested on: Staphylococcus aureus ATCC 6538
# Protocol Notes: microbe, parasite or virus in culture
# Assay type: cell-based
# Condition Notes: ATCC 6538, 6 h
# From the text: The standard bacterial strains used for antimicrobial activity assays include Staphylococcus aureus ATCC (American Type Culture Collection, Manassas, VA, USA) 6538, Bacillus cereus ATCC 10876, Enterococcus faecalis ATCC 29212, Streptococcus […] 27956, Streptococcus dysgalactiae ATCC 27957, Streptococcus equi subsp. zooepidemicus ATCC 43079, Escherichia coli ATCC 25922, and Pseudomonas aeruginosa ATCC 27853. […]
Where no end group is shown, it is not given here.
Kindly supply the reported Minimal inhibitory concentration, Staphylococcus aureus values for the records listed here.

Param item = KRRGSVTTRYQFLMIHLLRPKKLFA [EA-CATH1] ; retrieve measured Minimal inhibitory concentration, Staphylococcus aureus.
41 (13.4) μg/mL

Param item = GGLRSLGRKILRAWKKYGPIIVPIIRIG [BMAP-28] ; retrieve measured Minimal inhibitory concentration, Staphylococcus aureus.
5 (1.6) μg/mL

Param item = GRFRRLRKKTRKRLKKIGKVLKWIPPIVGSIPLGCG [PMAP-36] ; retrieve measured Minimal inhibitory concentration, Staphylococcus aureus.
9 (2.2) μg/mL

Param item = RRRPRPPYLPRPRPPPFFPPRLPPRIPPGFPPRFP [PR-35] ; retrieve measured Minimal inhibitory concentration, Staphylococcus aureus.
> 40 (9.5) μg/mL

Param item = LNPLIKAGIFILKHRRPIGRGIEITGRGIKKFFSK [ML-CATH] ; retrieve measured Minimal inhibitory concentration, Staphylococcus aureus.
2 (0.5) μg/mL

Param item = VRRSKRGIKVPSFVKKVLKDVVSESIS [ΔModoCath6] ; retrieve measured Minimal inhibitory concentration, Staphylococcus aureus.
> 40 (13.2) μg/mL

Param item = SKFFRKARKKLGKGLQKIKNVLRKY [ΔHg-CATH] ; retrieve measured Minimal inhibitory concentration, Staphylococcus aureus.
> 40 (13.2) μg/mL

Param item = ILGPALRIGGRIAGRIAGKLIGDAINRHRERNRQRRG [PD-CATH] ; retrieve measured Minimal inhibitory concentration, Staphylococcus aureus.
3 (0.7) μg/mL

Param item = VKRTKRGARRGLTKVLKKIFGSIVKKAVSKGV [ΔModoCath1] ; retrieve measured Minimal inhibitory concentration, Staphylococcus aureus.
11 (3.2) μg/mL

Param item = ILGRLRDLLRRGGRKIGQGLERIGQRIQGFFSNREPMEES [HA-CATH] ; retrieve measured Minimal inhibitory concentration, Staphylococcus aureus.
26 (5.6) μg/mL

Param item = TRSRWRRFIRGAGRFARRYGWRIA [ΔPb-CATH4] ; retrieve measured Minimal inhibitory concentration, Staphylococcus aureus.
4 (1.3) μg/mL

Param item = RVRRFWPLVPVAINTVAAGINLYKAIRRK [cc-CATH3] ; retrieve measured Minimal inhibitory concentration, Staphylococcus aureus.
2 (0.6) μg/mL

Param item = WYQLIRTFGNLIHQKYRKLLEAYRKLRD [ΔModoCath5] ; retrieve measured Minimal inhibitory concentration, Staphylococcus aureus.
6 (1.7) μg/mL
